biological target: hTREM2 (Homo sapiens, UniProt Q9NZC2); assay: Phospho-Syk AlphaScreen/AlphaLISA assay in TREM2 and DAP12 overexpressing HEK293 cells (Example A1); assay type: cell-based; set-up: expressed in transfected cells; settings: HEK293 cells, read-out: hTREM2 EC50
Sequence (Q9NZC2 19-230): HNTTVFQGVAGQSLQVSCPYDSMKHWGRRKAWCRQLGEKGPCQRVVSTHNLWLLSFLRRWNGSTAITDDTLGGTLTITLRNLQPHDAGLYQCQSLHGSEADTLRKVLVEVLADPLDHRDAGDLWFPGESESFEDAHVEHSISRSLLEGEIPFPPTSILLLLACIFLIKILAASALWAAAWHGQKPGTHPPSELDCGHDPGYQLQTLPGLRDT
Sequence (O43914 22-113 partner): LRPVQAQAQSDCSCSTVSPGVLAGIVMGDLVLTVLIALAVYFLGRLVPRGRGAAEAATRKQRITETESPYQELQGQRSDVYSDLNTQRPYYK
pEC50: −log10 of the molar value.
experimental.endpoint: pEC50

Please review the following examples before continuing.
compound | pEC50
COc1cccc([C@H]2CN(c3cc4nc(C)n(C)c(=O)c4c(-c4ccc(Cl)cc4F)n3)CCO2)c1 (single isomer, unassigned) [Example 80] | 6.30 to 7.30
CCc1nnc(C2CN(c3cc4nc(C)n(C)c(=O)c4c(-c4ccc(Cl)cc4F)n3)CCO2)o1 (stereo not shown) [Example 70] | 6.30 to 7.30
Cc1nc2cc(N3C[C@@H](C4CC4)O[C@@H](C)C3)nc(-c3ccc(Cl)cc3F)c2c(=O)n1C (single isomer, unassigned) [Example 37] | 6.30 to 7.30
Cc1nc2cc(N3CCO[C@@H](c4cnn(CC(F)(F)F)c4)C3)nc(-c3ccc(Cl)cc3F)c2c(=O)n1C [Example 126] | > 7.30
Cc1nc2cc(N3CCO[C@H](c4cnn(C)c4)C3)cc(-c3ccc(Cl)cc3F)c2c(=O)n1C [Example 221] | 6.30 to 7.30
C=Cn1cc([C@H]2CN(c3cc4nc(C)n(C)c(=O)c4c(-c4ccc(Cl)cc4F)n3)CCO2)cn1 [Example 137] | > 7.30
Cc1nc2cc(N3CCO[C@H](c4cccnc4)C3)nc(-c3ccc(Cl)cc3F)c2c(=O)n1C (single isomer, unassigned) [Example 47] | 4.00 to 5.52
Cc1nc2cc(N3CCO[C@@H](c4cnn(C(C)C)c4)C3)nc(-c3ccc(Cl)cc3F)c2c(=O)n1C [Example 123] | > 7.30
Cc1nc2cc(N3CCC[C@H](c4cnn(C)c4)C3)nc(-c3ccc(Cl)cc3F)c2c(=O)n1C [Example 214] | 6.30 to 7.30
Cc1nc2cc(N3CC[C@H](N(C)C)C3)nc(-c3ccc(Cl)cc3F)c2c(=O)n1C [Example 255] | 4.00 to 5.52

Go through the list and state pEC50 for each entry.
1. Cc1nc2cc(N3CCO[C@@H](c4cnn(C)c4)C3)nc(-c3ccc(Cl)c(F)c3F)c2c(=O)n1C [Example 14]
2. Cc1nc2cc(N3Cc4cccnc4C3)nc(-c3ccc(Cl)cc3F)c2c(=O)n1C [Example 247]
3. Cc1nc2cc(N3C[C@H](c4cnn(C)c4)OC[C@H]3C)nc(-c3ccc(Cl)cc3F)c2c(=O)n1C (single isomer, unassigned) [Example 25]
4. Cc1nc2cc(N3CCC[C@@H](N4CCC4)C3)nc(-c3ccc(Cl)cc3F)c2c(=O)n1C [Example 246]
5. Cc1ccc(C2CC(c3cc4nc(C)n(C)c(=O)c4c(-c4ccc(Cl)cc4F)n3)CCO2)cn1 (stereo not shown) [Example 171]
6. Cc1nc2cc(N3CCc4ncn(C)c4C3)nc(-c3ccc(Cl)cc3F)c2c(=O)n1C [Example 222]
7. Cc1nc2cc(N3CCO[C@H](c4ccsc4)C3)nc(-c3ccc(Cl)cc3F)c2c(=O)n1C (single isomer, unassigned) [Example 54]

["6.30 to 7.30", "4.00 to 5.52", "5.52 to 6.30", "4.00 to 5.52", "6.30 to 7.30", "5.52 to 6.30", "6.30 to 7.30"]

Go through the list and state pEC50 for each entry.
1. Cc1nc2cc(N3CCO[C@H](c4cnn(C)c4)C3)nc(-c3ccc(Cl)cn3)c2c(=O)n1C [Example 211]
2. Cc1nc2cc(N3CCO[C@@H]([C@@H]4CCO4)C3)nc(-c3ccc(Cl)cc3F)c2c(=O)n1C (single isomer, unassigned) [Example 39]
3. Cc1nc2cc(N3CCO[C@H](c4ccnc(Cl)c4)C3)nc(-c3ccc(Cl)cc3F)c2c(=O)n1C (single isomer, unassigned) [Example 88]
4. CCCn1c(C)nc2cc(N3CCO[C@H](CF)C3)nc(-c3ccc(Cl)cc3F)c2c1=O [Example 193]
5. Cc1nc2cc(N3CCOC(CC(F)(F)F)C3)nc(-c3ccc(Cl)cc3F)c2c(=O)n1C (stereo not shown) [Example 53]

["4.00 to 5.52", "5.52 to 6.30", "5.52 to 6.30", "5.52 to 6.30", "5.52 to 6.30"]

Go through the list and state pEC50 for each entry.
1. Cc1nc2cc(N3CCO[C@@H](c4cn[nH]c4)C3)nc(-c3ccc(Cl)cc3F)c2c(=O)n1C [Example 22]
2. Cc1nc2cc(N3CCO[C@@H](c4cnn(C)c4)C3)nc(-c3ccc(C(F)(F)F)cc3F)c2c(=O)n1C [Example 13]
3. CCCn1c(C)nc2cc(N3CCO[C@H](c4cnn(C)c4)C3)nc(-c3ncc(Cl)cc3C)c2c1=O [Example 195]
4. Cc1nc2cc([C@H]3CCO[C@@H](c4cnn(C)c4)C3)nc(-c3ccc(Cl)cc3F)c2c(=O)n1C (single isomer, unassigned) [Example 162]

> 7.30
6.30 to 7.30
4.00 to 5.52
> 7.30

Go through the list and state pEC50 for each entry.
1. Cc1nc2cc(N3CCc4cnn(C)c4C3)nc(-c3ccc(Cl)cc3F)c2c(=O)n1C [Example 104]
2. Cc1nc2cc(N3CCO[C@@H](c4cnn(C)c4)C3)nc(-c3ncc(Cl)cc3F)c2c(=O)n1C [Example 216]

1. 6.30 to 7.30
2. 5.52 to 6.30
